Values compiled from BigSolDB 2.1.

- recorded-conditions: in n-propanol, 326.45 K
readout-label: solubility (mole fraction)
Numbers only.

IN: Supply measured solubility (mole fraction) of `Fc1c(I)c(F)c(I)c(F)c1I` in your reply.
OUT: 0.00585

====

- recorded-conditions: in ethanol, 308.15 K
readout-label: solubility (mole fraction)
One number for each entry.

IN: Identify solubility (mole fraction) associated with the compound `Fc1c(I)c(F)c(I)c(F)c1I`
OUT: 0.00119

====

- recorded-conditions: in toluene, 305.15 K
readout-label: solubility (mole fraction)
Numbers only.

IN: Quote solubility (mole fraction) reported for `Fc1c(I)c(F)c(I)c(F)c1I` please.
OUT: 0.000329

====

- recorded-conditions: in ethanol, 317.15 K
readout-label: solubility (mole fraction)
Numbers only.

IN: Return reported solubility (mole fraction). Input compound: `Fc1c(I)c(F)c(I)c(F)c1I`
OUT: 0.00149

====

- recorded-conditions: in toluene, 302.15 K
readout-label: solubility (mole fraction)
Give bare numbers.

IN: Note down solubility (mole fraction) recorded for `Fc1c(I)c(F)c(I)c(F)c1I`
OUT: 0.000294

====

- recorded-conditions: in 1,4-dioxane, 317.15 K
readout-label: solubility (mole fraction)
Numbers only.

IN: Provide one value: measured solubility (mole fraction) of `Fc1c(I)c(F)c(I)c(F)c1I`
OUT: 0.000641

====

- recorded-conditions: in 1,2-dichloroethane, 308.15 K
readout-label: solubility (mole fraction)
Give bare numbers.

IN: // fetch solubility (mole fraction) given entry `Fc1c(I)c(F)c(I)c(F)c1I`
OUT: 0.000131

====

- recorded-conditions: in ethyl acetate, 325.15 K
readout-label: solubility (mole fraction)

IN: // Input: `Fc1c(I)c(F)c(I)c(F)c1I` . Output its solubility (mole fraction) only.
OUT: 0.00155

====

- recorded-conditions: in ethyl acetate, 308.15 K
readout-label: solubility (mole fraction)

IN: Specify reported solubility (mole fraction) for the compound shown: `Fc1c(I)c(F)c(I)c(F)c1I`
OUT: 0.00107

====

- recorded-conditions: in 1,2-dichloroethane, 317.15 K
readout-label: solubility (mole fraction)
Numbers only.

IN: Look up and state reported solubility (mole fraction) for `Fc1c(I)c(F)c(I)c(F)c1I`
OUT: 0.000207

====

- recorded-conditions: in n-propanol, 321.55 K
readout-label: solubility (mole fraction)

IN: Please report solubility (mole fraction) for the following compound: `Fc1c(I)c(F)c(I)c(F)c1I`
OUT: 0.00531

====

- recorded-conditions: in ethanol, 299.15 K
readout-label: solubility (mole fraction)
Give bare numbers.

IN: Return reported solubility (mole fraction). Input molecule: `Fc1c(I)c(F)c(I)c(F)c1I`
OUT: 0.000874

====

- recorded-conditions: in ethyl acetate, 330.15 K
readout-label: solubility (mole fraction)

IN: Please indicate solubility (mole fraction) recorded for `Fc1c(I)c(F)c(I)c(F)c1I`
OUT: 0.00167

====

- recorded-conditions: in THF, 290.25 K
readout-label: solubility (mole fraction)
Numbers only.

IN: Read off the recorded solubility (mole fraction) for `Fc1c(I)c(F)c(I)c(F)c1I`
OUT: 0.00478

====

- recorded-conditions: in ethanol, 314.15 K
readout-label: solubility (mole fraction)
Answers are plain numbers.

IN: Provide solubility (mole fraction) value for the following molecule: `Fc1c(I)c(F)c(I)c(F)c1I`
OUT: 0.00138

====

- recorded-conditions: in 1,4-dioxane, 299.15 K
readout-label: solubility (mole fraction)
Give bare numbers.

IN: Look up and state reported solubility (mole fraction) for `Fc1c(I)c(F)c(I)c(F)c1I`
OUT: 0.000387

====

- recorded-conditions: in 1,4-dioxane, 295.15 K
readout-label: solubility (mole fraction)
Answers are plain numbers.

IN: Please give the documented solubility (mole fraction) of `Fc1c(I)c(F)c(I)c(F)c1I`
OUT: 0.000334

====

- recorded-conditions: in THF, 320.15 K
readout-label: solubility (mole fraction)
Give bare numbers.

IN: Annotate the compound `Fc1c(I)c(F)c(I)c(F)c1I` with its measured solubility (mole fraction).
OUT: 0.00601

====

- recorded-conditions: in 1,4-dioxane, 330.15 K
readout-label: solubility (mole fraction)
Give bare numbers.

IN: Supply solubility (mole fraction) value. Item: `Fc1c(I)c(F)c(I)c(F)c1I`
OUT: 0.00088

====

- recorded-conditions: in ethyl acetate, 311.15 K
readout-label: solubility (mole fraction)

IN: Indicate its recorded solubility (mole fraction); the compound in question is `Fc1c(I)c(F)c(I)c(F)c1I`
OUT: 0.00118

====

- recorded-conditions: in isopropanol, 291.25 K
readout-label: solubility (mole fraction)
Answers are plain numbers.

IN: Consider the molecule `Fc1c(I)c(F)c(I)c(F)c1I` and give its recorded solubility (mole fraction).
OUT: 0.00214

====

- recorded-conditions: in acetone, 302.15 K
readout-label: solubility (mole fraction)
Answers are plain numbers.

IN: For the compound `Fc1c(I)c(F)c(I)c(F)c1I` , report solubility (mole fraction).
OUT: 5.89e-05

====

- recorded-conditions: in acetone, 320.15 K
readout-label: solubility (mole fraction)
One number for each entry.

IN: Annotate the compound `Fc1c(I)c(F)c(I)c(F)c1I` with its measured solubility (mole fraction).
OUT: 0.000162

====

- recorded-conditions: in n-propanol, 301.35 K
readout-label: solubility (mole fraction)

IN: Recall and state the measured solubility (mole fraction) for `Fc1c(I)c(F)c(I)c(F)c1I` .
OUT: 0.00325

====

- recorded-conditions: in 1,4-dioxane, 320.15 K
readout-label: solubility (mole fraction)
Give bare numbers.

IN: Please give the documented solubility (mole fraction) of `Fc1c(I)c(F)c(I)c(F)c1I`
OUT: 0.000697

====

- recorded-conditions: in n-propanol, 316.55 K
readout-label: solubility (mole fraction)

IN: Dear colleague, please send me the reported solubility (mole fraction) for `Fc1c(I)c(F)c(I)c(F)c1I` when you can.
OUT: 0.00482

====

- recorded-conditions: in n-hexane, 298.85 K
readout-label: solubility (mole fraction)
Numbers only.

IN: Using the record for `Fc1c(I)c(F)c(I)c(F)c1I` , state its measured solubility (mole fraction).
OUT: 0.00732

====

- recorded-conditions: in methanol, 320.15 K
readout-label: solubility (mole fraction)
Numbers only.

IN: Using the record for `Fc1c(I)c(F)c(I)c(F)c1I` , state its measured solubility (mole fraction).
OUT: 0.00014

====

- recorded-conditions: in toluene, 299.15 K
readout-label: solubility (mole fraction)

IN: Check the records and state solubility (mole fraction) for `Fc1c(I)c(F)c(I)c(F)c1I`
OUT: 0.000261

====

- recorded-conditions: in 1,2-dichloroethane, 290.15 K
readout-label: solubility (mole fraction)
One number for each entry.

IN: Provide solubility (mole fraction) value for the following compound: `Fc1c(I)c(F)c(I)c(F)c1I`
OUT: 2.33e-05

====

- recorded-conditions: in 1,4-dioxane, 325.15 K
readout-label: solubility (mole fraction)

IN: Indicate the recorded solubility (mole fraction) value for this molecule: `Fc1c(I)c(F)c(I)c(F)c1I`
OUT: 0.000773

====

- recorded-conditions: in THF, 299.85 K
readout-label: solubility (mole fraction)

IN: Specify solubility (mole fraction) for `Fc1c(I)c(F)c(I)c(F)c1I` and stop.
OUT: 0.00511

====

- recorded-conditions: in methanol, 295.15 K
readout-label: solubility (mole fraction)
Answers are plain numbers.

IN: For `Fc1c(I)c(F)c(I)c(F)c1I` , write its solubility (mole fraction).
OUT: 3.71e-05

====

- recorded-conditions: in n-hexane, 313.75 K
readout-label: solubility (mole fraction)
Numbers only.

IN: Provide one value: measured solubility (mole fraction) of `Fc1c(I)c(F)c(I)c(F)c1I`
OUT: 0.0101

====

- recorded-conditions: in methanol, 290.15 K
readout-label: solubility (mole fraction)
One number for each entry.

IN: For `Fc1c(I)c(F)c(I)c(F)c1I` , write its solubility (mole fraction).
OUT: 2.24e-05

====

- recorded-conditions: in ethanol, 302.15 K
readout-label: solubility (mole fraction)
Give bare numbers.

IN: Let me know recorded solubility (mole fraction) for `Fc1c(I)c(F)c(I)c(F)c1I` , thanks.
OUT: 0.000962

====

- recorded-conditions: in ethanol, 320.15 K
readout-label: solubility (mole fraction)
Give bare numbers.

IN: Quick one: give measured solubility (mole fraction) for `Fc1c(I)c(F)c(I)c(F)c1I`
OUT: 0.0016

====

- recorded-conditions: in 1,2-dichloroethane, 314.15 K
readout-label: solubility (mole fraction)
Numbers only.

IN: Give reported solubility (mole fraction) value for `Fc1c(I)c(F)c(I)c(F)c1I`
OUT: 0.000181

====

- recorded-conditions: in toluene, 325.15 K
readout-label: solubility (mole fraction)
Give bare numbers.

IN: Report solubility (mole fraction), nothing else, for this compound: `Fc1c(I)c(F)c(I)c(F)c1I`
OUT: 0.000573

====

- recorded-conditions: in ethanol, 330.15 K
readout-label: solubility (mole fraction)
One number for each entry.

IN: Give solubility (mole fraction) for `Fc1c(I)c(F)c(I)c(F)c1I`
OUT: 0.00193
